B1: FBF1 (parent)
chain: QLQCSPAELQAELLHSQARLAELE

Variants of: B1
assay_summary: protein stability index of a GFP-peptide fusion (GPS, HEK-293T) (PSI 1-6); higher = more stable;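 note: lentivirally expressed fusions sorted by FACS into six bins by GFP to DsRed ratio, PSI derived from sequencing read proportions per bin multiplied by bin number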
condition_context: c terminus: a fixed tail appended
measurement_kind: protein stability index
Give a plain numeric answer without units written out.

Check out these entries, answers already filled in.
A18G 4.23
Q10H 3.1
S16Q 4.06
Q1N 2.82
R19F 2.12
A7I 2.94

From here, focus on the item given below.
Consider the variant shown here: Q17D What is its recorded protein stability index?
4.55

Each recorded value in this set is attributed to the supplement of paper PMC10567573.
